# Test system: MCF-7 (hormone-responsive breast adenocarcinoma)
# assay: MTT cytotoxicity assay, MCF-7
# Type: cell-based, human
pIC50: −log10 of the molar value.
measurement.type: pIC50

>>> test_result("COC(CCn1cc(F)c(=O)n(C)c1=O)[C]12[CH]3[CH]4[CH]5[CH]1[Mn]4532.[C-]#[O+].[C-]#[O+].[C-]#[O+] (racemic)")
"< 3.82"
>>> test_result("CCC(=O)[C]12[CH]3[CH]4[CH]5[CH]1[Mn]4532.[C-]#[O+].[C-]#[O+].[C-]#[O+] (stereo not drawn)")
"< 3.82"
>>> test_result("Nc1ncnc2c1ncn2CCC(O)[C]12[CH]3[CH]4[CH]5[CH]1[Mn]4532.[C-]#[O+].[C-]#[O+].[C-]#[O+] (racemic)")
"< 3.82"

* * *

# System: bloodstream forms of T. brucei clone 427-221a
# assay: Trypanocidal assay, resazurin viability assay
# Format: cell-based, Trypanosoma brucei
# measurement.parameters: ratio of cytotoxic (HL-60) to trypanocidal (T. brucei) activity
measurement.type: Selectivity GI50 Ratio

>>> test_result("COC(CCn1cc(F)c(=O)n(C)c1=O)[C]12[CH]3[CH]4[CH]5[CH]1[Mn]4532.[C-]#[O+].[C-]#[O+].[C-]#[O+] (racemic) [Compound 4]")
">3.4"
>>> test_result("O=[C]=[Mn](=[C]=O)(=[C]=O)[CH]1C=CC=C1 [CymH, reference compound]")
">2.2"
>>> test_result("Cc1ccc(C(=O)Nc2ccc(S(=O)(=O)O)c3cc(S(=O)(=O)O)cc(S(=O)(=O)O)c23)cc1NC(=O)c1cccc(NC(=O)Nc2cccc(C(=O)Nc3cc(C(=O)Nc4ccc(S(=O)(=O)O)c5cc(S(=O)(=O)O)cc(S(=O)(=O)O)c45)ccc3C)c2)c1 [Suramin, suramin, reference compound]")
">2564"

* * *

Below: a set of entries, each annotated with reported IC50.
# Tested on: HepG2 (hepatocellular carcinoma)
# assay: MTT cytotoxicity assay, HepG2
# Assay type: cell-based, human
measurement.type: IC50

>>> test_result("Nc1ncnc2c1ncn2CCC(O)[C]12[CH]3[CH]4[CH]5[CH]1[Mn]4532.[C-]#[O+].[C-]#[O+].[C-]#[O+] (racemic)")
"> 150 µM"
>>> test_result("COC(CCn1cc(F)c(=O)n(C)c1=O)[C]12[CH]3[CH]4[CH]5[CH]1[Mn]4532.[C-]#[O+].[C-]#[O+].[C-]#[O+] (racemic)")
"> 150 µM"
>>> test_result("O=c1[nH]c(=O)n(CCC(O)[C]23[CH]4[CH]5[CH]6[CH]2[Mn]5643)cc1F.[C-]#[O+].[C-]#[O+].[C-]#[O+] (racemic)")
"> 150 µM"
